Target Desc: T1, EsCas13d, nuclease-dead (Eubacterium siraeum, UniProt B0MS50, R295A;H300A;R849A;H854A)
T1 sequence: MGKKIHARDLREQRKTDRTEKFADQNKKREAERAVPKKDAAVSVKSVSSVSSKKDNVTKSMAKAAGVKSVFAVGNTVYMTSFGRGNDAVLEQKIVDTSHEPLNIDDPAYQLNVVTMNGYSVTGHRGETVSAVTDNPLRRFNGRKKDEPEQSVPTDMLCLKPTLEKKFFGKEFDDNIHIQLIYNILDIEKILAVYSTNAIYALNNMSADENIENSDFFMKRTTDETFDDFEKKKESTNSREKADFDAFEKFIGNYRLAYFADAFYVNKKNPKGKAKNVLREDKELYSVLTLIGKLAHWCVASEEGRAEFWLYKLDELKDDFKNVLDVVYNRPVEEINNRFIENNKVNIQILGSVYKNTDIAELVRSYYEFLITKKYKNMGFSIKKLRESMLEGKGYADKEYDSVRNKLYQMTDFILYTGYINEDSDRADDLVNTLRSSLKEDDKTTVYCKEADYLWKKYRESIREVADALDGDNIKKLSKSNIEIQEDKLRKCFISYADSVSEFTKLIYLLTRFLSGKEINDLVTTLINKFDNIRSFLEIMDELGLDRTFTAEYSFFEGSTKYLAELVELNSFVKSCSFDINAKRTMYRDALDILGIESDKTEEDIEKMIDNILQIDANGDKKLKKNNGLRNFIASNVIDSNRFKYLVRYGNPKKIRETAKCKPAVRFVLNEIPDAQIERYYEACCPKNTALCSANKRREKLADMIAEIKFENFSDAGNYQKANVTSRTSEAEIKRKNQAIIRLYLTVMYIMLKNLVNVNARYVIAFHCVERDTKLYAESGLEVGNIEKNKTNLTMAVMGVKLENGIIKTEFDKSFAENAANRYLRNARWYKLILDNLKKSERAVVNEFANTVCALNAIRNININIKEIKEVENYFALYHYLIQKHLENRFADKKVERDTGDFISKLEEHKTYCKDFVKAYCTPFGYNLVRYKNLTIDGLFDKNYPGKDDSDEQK
Experiment: crRNA (strand 1, pre-loaded); Mg2+; 40 mM Tris-HCl pH 7.5, 150 mM NaCl, 6 mM MgCl2, 1 mM DTT, 0.1% Tween-20, 0.2 mg/ml BSA; 25 C; 10 min per concentration, then washed
Assay Setup: tags: His6-TwinStrep-SUMO cleaved; N-terminal SNAP kept (SNAP-Surface 488); label: 3' end held by stalled T7 RNA polymerase
Each item that follows carries a reported pKd.
Note on pKd: it is the negative log10 of concentration, concentration in mol/L.

target 1 insU 3' of 4 (mixed) RNA 1: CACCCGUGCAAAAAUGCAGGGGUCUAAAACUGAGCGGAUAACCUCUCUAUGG RNA 2: GGGAAUGGAUCCACAUCUACGAAUUCGUACCAUAGAGAGGUUAUCCGCUUCACCGAGAUCGGAAGAGCACACGU    8.06

Which measured pKd value corresponds to target 1 MT 5'PFS GGC 3'PFS UUG (mixed) RNA 1: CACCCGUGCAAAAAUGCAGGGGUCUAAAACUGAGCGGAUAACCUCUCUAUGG RNA 2: GGGAAUGGAUCCACAUCUACGAAUUCGGCCCAUAGAGAGGUUAUCCGCUCAUUGAGAUCGGAAGAGCACACGU ?
8.05

Which measured pKd value corresponds to target 1 MT 5'PFS AGA 3'PFS UAC (mixed) RNA 1: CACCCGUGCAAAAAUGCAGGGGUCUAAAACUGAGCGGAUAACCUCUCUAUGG RNA 2: GGGAAUGGAUCCACAUCUACGAAUUCAGACCAUAGAGAGGUUAUCCGCUCAUACAGAUCGGAAGAGCACACGU ?
7.40

Which measured pKd value corresponds to target 1 C7G,A9C (mixed) RNA 1: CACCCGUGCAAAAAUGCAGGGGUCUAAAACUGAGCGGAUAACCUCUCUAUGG RNA 2: GGGAAUGGAUCCACAUCUACGAAUUCGUACCAUAGAGAGGUUCUGCGCUCACCGAGAUCGGAAGAGCACACGU ?
8.03

Which measured pKd value corresponds to target 1 U10G,U19G (mixed) RNA 1: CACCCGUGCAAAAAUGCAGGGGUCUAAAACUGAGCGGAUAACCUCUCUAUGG RNA 2: GGGAAUGGAUCCACAUCUACGAAUUCGUACCAGAGAGAGGUGAUCCGCUCACCGAGAUCGGAAGAGCACACGU ?
7.05

Which measured pKd value corresponds to target 2 MT 5'PFS GCG 3'PFS ACC (mixed) RNA 1: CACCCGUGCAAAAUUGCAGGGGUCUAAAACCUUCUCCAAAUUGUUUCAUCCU RNA 2: GGGAAUGGAUCCACAUCUACGAAUUCGCGAGGAUGAAACAAUUUGGAGAAGACCAGAUCGGAAGAGCACACGU ?
7.52

Which measured pKd value corresponds to target 3 insU 3' of 6,insA 3' of 4 (mixed) RNA 1: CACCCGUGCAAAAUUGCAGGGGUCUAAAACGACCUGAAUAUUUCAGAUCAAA RNA 2: GGGAAUGGAUCCACAUCUACGAAUUCGUUUUUGAUCUGAAAUAUUCUAGAGUCUGCAGAUCGGAAGAGCACACGU ?
7.71

Which measured pKd value corresponds to target 1 G17U,C21U (mixed) RNA 1: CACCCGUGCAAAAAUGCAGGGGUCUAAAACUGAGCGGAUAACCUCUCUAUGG RNA 2: GGGAAUGGAUCCACAUCUACGAAUUCGUACUAUAUAGAGGUUAUCCGCUCACCGAGAUCGGAAGAGCACACGU ?
7.92
